Measured values drawn from PubChem BioAssay (NCI) for this set.

Recorded growth inhibition, one value per entry.
- METHOD_NOTES: NCI Yeast Anticancer Drug Screen. Data for the cln2 rad14 strain (AID 165);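 note: 0% = growth equal to vehicle treated cultures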
- EXPERIMENTAL_CONDITIONS: S. cerevisiae cln2 rad14 strain, at 50.0 µM, active compounds read high
Compounds without any hit were thinned out: in the full panel of roughly 79,000, 15% have a hit.
Give the quantity in %, number only.

COMPOUND	growth inhibition / %
CC(=O)N[N+](C)(C)C	4.05
COc1ccccc1OCC(O)CO (stereo not drawn)	7.7
COc1ccc2c(c1)SC1=NNC(=O)CN12	-39.1

QUERY: What value of growth inhibition has been recorded for this entry: COC1OC(CO)C(O)C(NC(=O)[C@H](Cc2ccc(O)cc2)NC(=O)OCc2ccccc2)C1O (stereo partly drawn)
RESULT: -6.05

QUERY: Returns the measured growth inhibition for the input compound. Input: CCCCCCC(=O)CC(SCCS)c1ccc(Cl)c(Cl)c1 (stereo not drawn)
RESULT: 5.8

QUERY: Which value of growth inhibition has been reported for CCCCCCCC/C=C/CCCCCCCC(=O)N(CCOC(=O)C(C)(C)C)CCOC(=O)C(C)(C)C in the records?
RESULT: 24.2
